PROTOCOL_NOTES: binders of probe aFGF10 on microarray, primary screen, stem cell growth factor project, biochemical, small-molecule microarray, fluorescence 635/667 (AID 1071);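 also: score merges 667 nm spot intensity and signal to noise from triplicate slides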
EXPERIMENTAL_CONDITIONS: higher = more signal
Would you kindly list composite z-score for each of these molecules?
One number for each entry.

MOLECULE	composite z-score
COCCOC(=O)N1C(=O)[C@@]2(c3cc(C#CC4=CCCCC4)ccc31)[C@H](C(=O)Nc1nc3ccccc3s1)[C@H]1C(=O)O[C@H](c3ccccc3)[C@H](c3ccccc3)N1[C@@H]2c1ccc(OCCO)cc1	0.427
C=CCNC(=O)[C@H]1[C@@H]2C(=O)O[C@@H](c3ccccc3)[C@@H](c3ccccc3)N2[C@@H](c2ccccc2OCCO)[C@]12C(=O)Nc1ccc(C#CC3=CCCCC3)cc12	0.88
CC(C)OC(=O)C=C1C[C@@H](c2ccccc2C(F)(F)F)O[C@@H](c2ccccc2C(F)(F)F)O1	-0.443
C=C(CCCC)C(=O)CC[C@@H](OC(=O)c1cccnc1)c1ccc(CO)o1	0.601
COC(=O)[C@@]1(Cc2ccc(F)cc2)[C@H]2c3cc(C(=O)N(C)C)n(Cc4nc5ccccc5[nH]4)c3C[C@H]2CN1C(=O)c1ccccc1	0.841

// each listed molecule needs a value for composite z-score
1. COCCCNC(=O)[C@@]1(Cc2ccccc2)N=C(c2ccc(OCCCO)cc2)O[C@H]1c1ccccc1
2. CC(=O)NCCCC[C@@H]1NC(=O)[C@@H]2C[C@H](C(=O)NCCCCCCNC(=O)CS)[C@H](c3cccc(OCCO)c3)N2C1=O
3. NCCCCCNC(=O)[C@@H]1C[C@@H]2C(=O)NCC(=O)N2[C@@H]1c1ccc(O)cc1
4. OC([C@@H]1CC(c2ccccc2)=NO1)[C@H]1CC(c2ccccc2)=NO1 (stereo not given in full)

Result:
0.155
0.283
0.975
0.287

Each molecule below has a recorded value; state its composite z-score.
1. C=CCOC(=O)[C@@H]1[C@H]2C(=O)O[C@H](c3ccccc3)[C@H](c3ccccc3)N2[C@H](c2ccc(OCCOC(=O)[C@@H]3C[C@@H]4C(=O)N[C@@H](CCCCN(C)C)C(=O)N4[C@@H]3c3ccc(O)cc3)cc2)[C@@]12C(=O)Nc1ccc(I)cc12
2. O=C1[C@H]2C=C(Br)[C@H](C[C@@H]2c2ccccc2)[C@@]12CO2
3. C=CC[C@]1(C(=O)N2CCCCC2)N=C(c2ccc(OCCCO)cc2)O[C@H]1c1ccccc1
4. O=C1OCC=C[C@H]2OC34C=CCN(c5ccc6ccccc6c5)C(=O)[C@H]3N(CCCCCCO)C(=O)[C@@H]4[C@@H]12 (stereo not given in full)
5. CN1C(=O)[C@]2(Cc3ccccc3)N=C(c3ccc(OCCCO)cc3)O[C@@H]2c2ccccc21
6. CN1C(=O)C2C=CC(C(O)C3=C[C@H]4C[C@@H](C3)C4(C)C)N(Nc3ccccc3)C2C1=O (stereo not given in full)

Result:
[0.347, 0.328, 0.452, -0.566, 0.802, 0.677]

====

PROTOCOL_NOTES: small-molecule microarray binders of probe aLefty2, primary screen, biochemical, biotinylated probe, 635/667 nm fluorescence (AID 1094);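 also: score merges spot fluorescence near 667 nm with spot signal-to-noise ratio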
EXPERIMENTAL_CONDITIONS: higher = more signal
OBSERVATION_TYPE: composite z-score
Numbers only.

MOLECULE	READOUT_VALUE
COC(=O)[C@@]1(Cc2ccc(OC)cc2)[C@H]2c3cc(C(=O)N(C)C)n(CCN4CNCC4=O)c3C[C@H]2CN1C(=O)c1ccccc1	-0.0877
CN1C(=O)C2C=CC(C(O)c3ccccc3)N(Nc3ccccc3)C2C1=O (centres undefined)	0.0105
COC(=O)c1c(CC[C@@H](CO)NC(=O)N2CCC[C@H]2Cn2cc(-c3ccccn3)nn2)oc(C(C)=O)c1C(=O)OC	-0.155
C=C(CCCC)C(=O)CC[C@@H](OC(=O)c1cccnc1)c1ccc(CO)o1	-0.105
CC(C)C[C@@H]1NC(=O)[C@@H]2C[C@H](C(=O)NCCCCCN)[C@H](c3cccc(OCCO)c3)N2C1=O	0.215
COc1cc2c(cc1O)C(C1CC1)N(Cc1cc3c(cc1Br)OCO3)CC2 (centres undefined)	-0.209
[N-]=[N+]=Nc1ccccc1C[C@]1(C(=O)NCC(O)CO)N=C(c2ccc(OCCCO)cc2)O[C@H]1c1ccccc1N=[N+]=[N-] (some centres undefined)	0.334
O=C1OCC=C[C@H]2OC34C=CCN(CCN5CCOCC5)C(=O)[C@H]3N(CCCO)C(=O)[C@@H]4[C@@H]12 (some centres undefined)	-0.208
CS(=O)(=O)CCOC(=O)C1=CC(CCCO)=CC(c2ccc(CN3CCCC3)cc2)N(Cc2cc3c(cc2Br)OCO3)C=C1C(=O)OCCS(C)(=O)=O (centres undefined)	0.0417
COCCOC(=O)N1C(=O)[C@@]2(c3cc(C#CC4=CCCCC4)ccc31)[C@H](C(N)=O)[C@H]1C(=O)O[C@H](c3ccccc3)[C@H](c3ccccc3)N1[C@@H]2c1ccc(OCCO)cc1	-0.399

Give measured composite z-score for every item shown.
1. COc1cc2c(cc1OC)CN(C(=O)[C@H]1[C@@H]3C(=O)O[C@@H](c4ccccc4)[C@@H](c4ccccc4)N3[C@@H](c3ccc(O)cc3)[C@]13C(=O)Nc1ccc(C#CC4=CCCCC4)cc13)CC2
2. C=CCOC(=O)[C@@H]1[C@H]2C(=O)O[C@H](c3ccccc3)[C@H](c3ccccc3)N2[C@H](c2ccc(OCCOC(=O)[C@@H]3C[C@@H]4C(=O)N[C@@H](CCCCN(C)C)C(=O)N4[C@@H]3c3ccc(O)cc3)cc2)[C@@]12C(=O)Nc1ccc(I)cc12
3. [N-]=[N+]=NCc1ccccc1C[C@]1(C(=O)O)N=C(c2ccc(OCCCO)cc2)O[C@H]1c1ccccc1N=[N+]=[N-]
4. CN(C)CCCC[C@@H]1NC(=O)[C@H]2C[C@@H](C(=O)NCCCCCNC(=O)CS)[C@@H](c3cccc(OCCO)c3)N2C1=O

Result:
[0.0857, -0.119, -0.128, 0.0144]

====

PROTOCOL_NOTES: compound binding in COS7 lysate, probe aLAP1, primary screen, cell lysate, small-molecule microarray (AID 1124);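 also: lysate comes from COS7 cells expressing LAP1 and is applied at 0.3 µg/mL; score merges spot fluorescence near 667 nm with signal-to-noise over triplicate slides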
EXPERIMENTAL_CONDITIONS: probe aLAP1, fluorescence, higher = more signal
Would you kindly list composite z-score for each of these molecules?
Give bare numbers.

The examples below pair each entry with its known result.
MOLECULE	OBSERVATION_TYPE	READOUT_VALUE
Cc1ccc(S[C@]2(C(=O)NCCN3CCOCC3)CC(=O)N(Cc3ccccc3)[C@@H]2c2ccc(CO)cc2I)cc1	composite z-score	0.202
C#CCN(CC1=CCCCC1)[C@H](c1ccccc1Br)[C@@H](O)Cc1ccccc1	composite z-score	0.0773
C=CCNC(=O)[C@@H]1[C@H]2C(=O)O[C@H](c3ccccc3)[C@H](c3ccccc3)N2[C@H](c2ccc(OCCO)cc2)[C@@]12C(=O)Nc1ccc(C#Cc3ccc(OC)cc3)cc12	composite z-score	0.606

Give one value of composite z-score per listed molecule.
1. O=C1c2ccccc2[C@@]2(Cc3ccccc3N(CCN3CCOCC3)C2=O)[C@H](c2ccc(CO)cc2)N1Cc1ccccc1
2. CN1C(=O)C2C=CC(C(O)C3CC=CCC3)N(NC(=O)OC(C)(C)C)C2C1=O (stereo unspecified)
3. O=C1C2C=CC(C(O)c3ccc(F)cc3)N(Nc3ccccc3F)C2C(=O)N1c1ccccc1 (stereo unspecified)
4. CN(C)C(=O)[C@]1(Cc2ccccc2N=[N+]=[N-])N=C(c2ccc(OCCCO)cc2)O[C@@H]1c1ccccc1
5. C=CCOC(=O)[C@@H]1[C@H]2C(=O)O[C@H](c3ccccc3)[C@H](c3ccccc3)N2[C@H](c2ccc(OCCOC(=O)[C@@H]3C[C@@H]4C(=O)N[C@@H](Cc5ccccc5)C(=O)N4[C@@H]3c3ccc(O)cc3)cc2)[C@@]12C(=O)Nc1ccc(I)cc12
6. C=CCOC(=O)[C@@H]1[C@H]2C(=O)O[C@H](c3ccccc3)[C@H](c3ccccc3)N2[C@H](c2ccc(OCCOC(=O)[C@@H]3C[C@@H]4C(=O)N5CCC[C@H]5C(=O)N4[C@@H]3c3ccc(O)cc3)cc2)[C@@]12C(=O)Nc1ccc(I)cc12
7. C[C@@]1([C@@H](NC(=O)c2ccccc2)c2ccc(-c3ccccc3)cc2)C[C@H]1C1CCCCC1

Result:
1: 0.235; 2: 0.532; 3: -0.0953; 4: 0.644; 5: 0.0186; 6: -0.0072; 7: -0.0002

====

I'd be grateful if you could share measured composite z-score for these entries.
PROTOCOL_NOTES: small-molecule binders of probe aNOTCH3, primary screen, biochemical, small-molecule microarray, 635/667 nm fluorescence (AID 1120);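 also: probe is a biotin-tagged antibody raised against NOTCH3 rather than NOTCH3 protein; score merges spot fluorescence near 667 nm with spot signal to noise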
EXPERIMENTAL_CONDITIONS: higher = more signal
Numbers only.

Guide cases for composite z-score, answers given:
STRUCTURE_SMILES_STRING	composite z-score
CCOC(=O)[C@H]1C/C=C/C[C@H](C(=O)OCC)C(=O)O[C@H]2[C@@H](OC)O[C@H](CO)[C@@H](OC(=O)Nc3cccc(F)c3)[C@@H]2OC1=O	1.06
COC(=O)C(CC#Cc1ccc2c(c1)[C@]1(C(=O)N2)[C@H](c2ccc(O)cc2)N2[C@H](c3ccccc3)[C@H](c3ccccc3)OC(=O)[C@H]2[C@@H]1C(=O)Nc1nc2ccccc2s1)C(=O)OC	0.138
Cc1ccc(S[C@]2(C(=O)NC(C)C)CC(=O)N(Cc3ccccc3Cl)[C@@H]2c2ccc(CO)cc2I)cc1	-0.469
C=CC[C@]1(C(=O)NCCCOC)N=C(c2ccc(OCCCO)cc2)O[C@H]1c1ccccc1N=[N+]=[N-]	0.205
COc1ccc(CCNC(=O)[C@@H]2c3ccccc3C(=O)N(C3Cc4ccccc4C3)[C@H]2c2ccc(CO)cc2)cc1	-0.0725

Next up:
Task: Annotate the molecule "O=C1O[C@H](c2ccccc2)[C@H](c2ccccc2)N2[C@H]1[C@@H](C(=O)Nc1nc3ccccc3s1)[C@]1(C(=O)Nc3ccc(C#CC4(O)CCCCCC4)cc31)[C@H]2c1ccc(OCCO)cc1" with its measured composite z-score.
Result: -0.0562
